system: HEK293; test: Cytotoxicity against human HEK293 cells after 72 hrs by sulforhodamine B assay; format: functional; conditions: HEK293, 72 h, read-out: ED50 (the source's name)
pEC50: −log10 of the molar value.
Measured Metric: pEC50

Sample answers from the record:
INSERT INTO assay_data (molecule, assay_value) VALUES
  ('C=C(C(=O)O)[C@@H]1CC[C@@H]2[C@]3(CC[C@]4(C)[C@@H]([C@H](C)CC(=O)C=C(C)C)CC[C@@]24C)C[C@]13CCC(=O)OC (relative stereo)', '< 5.00'),
  ('C=C(CO)[C@@H]1CC[C@@H]2[C@H](CC[C@]3(C)[C@@H]([C@H](C)CC(=O)C=C(C)C)CC[C@@]23C)C[C@]12CCC(=O)O2', '< 5.00');

Now consider a different molecule.
(Q) Please list pEC50 recorded for the molecule "C=C(C(=O)O)[C@@H]1CC[C@@H]2[C@]3(CC[C@]4(C)[C@@H]([C@H](C)CC(=O)C=C(C)C)CC[C@@]24C)C[C@]13CCC(=O)O"
(A) < 5.00

All values here come from ChEMBL document CHEMBL2331280.
